Below is a list of entries, each paired with its recorded growth value.
Test system: SK-MEL-28 melanoma
ASSAY: NCI-60 one-dose screen, 48 h (100 = growth as untreated, 0 = no growth, -100 = all killed)
CONDITIONS_USED: 10 µM unless noted
The panel holds about 83,000 compounds, 20% with a hit somewhere; the sample as a whole holds those more often.

- MOLECULE: "CCCCCN1C(=O)CCC1=O"
  UNIT_SPEC: "%"
  growth: 110
- MOLECULE: "O=C(Nc1ccc(Cl)cc1)Nc1nc2ccc(OC(F)(F)F)cc2o1"
  UNIT_SPEC: "%"
  growth: 108
- MOLECULE: "COc1cccc(C=Nc2cc(C(C)C)c(O)cc2C)c1O"
  UNIT_SPEC: "%"
  growth: 116
- MOLECULE: "COC(=O)N/N=C/c1coc2ccc(Cl)cc2c1=O"
  UNIT_SPEC: "%"
  growth: 100
- MOLECULE: "Nc1ccc2c(c1)Cc1cc(Cl)c(Cl)cc1-2"
  UNIT_SPEC: "%"
  growth: 78.6
- MOLECULE: "COc1cc(/C=C2\\CN(C)CC3=C2Nc2nc(SC)[nH]c(=O)c2C3c2cc(OC)c(OC)c(OC)c2)cc(OC)c1OC (stereo unspecified)"
  UNIT_SPEC: "%"
  growth: 44.9
- MOLECULE: "CCN(CC)CCNCC(=O)Oc1ccc(/C=C/C(=O)CC(=O)/C=C/c2ccc(OC(=O)CNCCN(CC)CC)c(OC)c2)cc1OC"
  UNIT_SPEC: "%"
  growth: 14.5
- MOLECULE: "Clc1ccc2nc(CI)c(CI)nc2c1"
  UNIT_SPEC: "%"
  growth: 113
- MOLECULE: "Cc1ccc(C(=O)Cc2ccccc2)c(O)c1"
  UNIT_SPEC: "%"
  growth: 117
- MOLECULE: "O=C(c1ccccc1)C(CN1CCCCC1)c1ccccc1 (stereo unspecified)"
  UNIT_SPEC: "%"
  growth: 58.8
- MOLECULE: "CCCCCCCC[Si](OCC)(OCC)OCC"
  UNIT_SPEC: "%"
  growth: 104

---

Test system: T-47D breast
ASSAY: NCI-60 one-dose screen, 48 h
CONDITIONS_USED: 10 µM unless noted
About 83,000 compounds went through this panel and 20% of them were active in at least one assay; those are over-represented in the sample as a whole. The source made the active and inactive calls. How the source made its calls: active means growth percent below 10; inactive means the rest.
Labels: active, inactive

- COMPOUND: "c1ccc(-c2nc(Nc3nccnn3)c3ccccc3n2)cc1"
  STUDY_TARGET: "T-47D breast"
  GROUP: "inactive"
- COMPOUND: "Clc1ccc(C2=NN(c3ccc(Cl)cc3)C(c3cccc(Nc4ccnc5cc(Cl)ccc45)c3)C2)cc1 (stereo not given)"
  STUDY_TARGET: "T-47D breast"
  GROUP: "inactive"
- COMPOUND: "COc1ccc2c(c1)sc1nc(-c3ccc(Br)cc3)cn12"
  STUDY_TARGET: "T-47D breast"
  GROUP: "inactive"
- COMPOUND: "O=Cc1ncc(-c2ccc(C(F)(F)F)cc2)c(NC2CCCCCC2)n1"
  STUDY_TARGET: "T-47D breast"
  GROUP: "active"
- COMPOUND: "NS(=O)(=O)c1ccc(N2CC(c3nc4ccccc4[nH]3)CC2=O)cc1 (stereo not given)"
  STUDY_TARGET: "T-47D breast"
  GROUP: "inactive"
- COMPOUND: "CCc1nn2c(-c3ccc(Cl)cc3C)c(-c3cc(OC)c(OC)c(OC)c3)nc2s1"
  STUDY_TARGET: "T-47D breast"
  GROUP: "inactive"
- COMPOUND: "O=C(/C=C/c1ccc([N+](=O)[O-])cc1)c1ccc2c3c(cccc13)CC2"
  STUDY_TARGET: "T-47D breast"
  GROUP: "inactive"
- COMPOUND: "COc1ccc(C2=NN(C(N)=S)C(c3ccc4c(c3)OCO4)C2)cc1 (stereo not given)"
  STUDY_TARGET: "T-47D breast"
  GROUP: "inactive"
- COMPOUND: "Clc1ccc2[nH]cc(-c3cncn3CCc3ccccc3)c2c1"
  STUDY_TARGET: "T-47D breast"
  GROUP: "inactive"
- COMPOUND: "O=C(NCCCl)NCCN1c2nc3ccccc3cc2Sc2cc3ccccc3nc21"
  STUDY_TARGET: "T-47D breast"
  GROUP: "inactive"
- COMPOUND: "CCN(CC)CCCCCCCNc1c2ccc(Cl)cc2nc2ccc(OC)cc12"
  STUDY_TARGET: "T-47D breast"
  GROUP: "active"
- COMPOUND: "O=c1ncc(-c2ccc(C(F)(F)F)cc2)c(NC2CCCCCC2)[nH]1"
  STUDY_TARGET: "T-47D breast"
  GROUP: "inactive"
- COMPOUND: "O=C(N/N=C/c1ccc(Cl)cc1Cl)c1ccccc1Nc1cccc(C(F)(F)F)c1"
  STUDY_TARGET: "T-47D breast"
  GROUP: "inactive"
- COMPOUND: "Cn1ccnc1C(=O)/C=C/c1ccc(C(=O)Nc2nc3ccccc3[nH]2)cc1"
  STUDY_TARGET: "T-47D breast"
  GROUP: "inactive"
- COMPOUND: "CCSc1nc(Nc2ccc(S(=O)(=O)Nc3ccon3)cc2)c(C#N)c(-c2cccc(Br)c2)n1"
  STUDY_TARGET: "T-47D breast"
  GROUP: "inactive"
- COMPOUND: "COc1cc(Cl)cc(-c2nn(-c3cccc(NC(=O)c4cc(C(F)(F)F)cc(C(F)(F)F)c4)c3)cc2-c2ccncc2)c1"
  STUDY_TARGET: "T-47D breast"
  GROUP: "inactive"
- COMPOUND: "CCOc1cc(/C=C/C(=O)C(C(=O)/C=C/c2ccc(OC(=O)CNc3nnc(C)s3)c(OCC)c2)C(=O)CNc2nnc(C)s2)ccc1OC(=O)CNc1nnc(C)s1"
  STUDY_TARGET: "T-47D breast"
  GROUP: "inactive"
- COMPOUND: "Cc1cc(C(=O)Nc2ccc3cc(CN4CCOCC4)ccc3n2)c(C)n1-c1ccccc1"
  STUDY_TARGET: "T-47D breast"
  GROUP: "active"
- COMPOUND: "O=C(Oc1ccccc1)C(Br)C(Br)c1ccccc1 (stereo not given)"
  STUDY_TARGET: "T-47D breast"
  GROUP: "inactive"
- COMPOUND: "CCCCCc1c(C)[nH]c(/C=C2\\N=C(c3ccc[nH]3)C=C2OCc2ccccc2)c1C"
  STUDY_TARGET: "T-47D breast"
  GROUP: "active"
- COMPOUND: "N#Cc1ccccc1C#Cc1ccccc1C#Cc1ccc(OCCCCCCOc2ccc(C#Cc3ccccc3C#Cc3ccccc3C#N)cc2)cc1"
  STUDY_TARGET: "T-47D breast"
  GROUP: "inactive"
- COMPOUND: "COc1ccc(NC(=O)[C@@H]2C[C@H]2c2ccccc2)c(C(N)=O)c1"
  STUDY_TARGET: "T-47D breast"
  GROUP: "inactive"
- COMPOUND: "COC(=O)N/N=C/c1coc2ccc(Cl)cc2c1=O"
  STUDY_TARGET: "T-47D breast"
  GROUP: "inactive"
- COMPOUND: "Cc1sc2nc3c4ccccc4c(NCCCN(C)C)nn3c(=O)c2c1C"
  STUDY_TARGET: "T-47D breast"
  GROUP: "inactive"
- COMPOUND: "O=C(COc1cccc(/C=C2\\Oc3ccc4ccccc4c3C2=O)c1)c1ccc([N+](=O)[O-])cc1"
  STUDY_TARGET: "T-47D breast"
  GROUP: "inactive"
- COMPOUND: "Nc1ccc2c(c1)Cc1cc(Cl)c(Cl)cc1-2"
  STUDY_TARGET: "T-47D breast"
  GROUP: "inactive"
- COMPOUND: "O=C(C(=O)c1cc(Br)ccc1O)c1cc(Br)ccc1O"
  STUDY_TARGET: "T-47D breast"
  GROUP: "active"
- COMPOUND: "Cc1cc(=O)oc2cc(OCCn3c(C)nn(-c4ccc(Cl)cc4)c3=O)ccc12"
  STUDY_TARGET: "T-47D breast"
  GROUP: "inactive"
- COMPOUND: "COC(=O)Nc1ccc2ccc3c(NC(=O)OC)ccc4ccc1c2c43 (tested in a mixture with another compound)"
  STUDY_TARGET: "T-47D breast"
  GROUP: "inactive"
- COMPOUND: "CC(C)N(Cc1ccccc1)c1c(S)ssc1=S"
  STUDY_TARGET: "T-47D breast"
  GROUP: "inactive"
- COMPOUND: "COC(=O)C1=CCC(n2cnc3c(N)ncnc32)O1 (stereo not given)"
  STUDY_TARGET: "T-47D breast"
  GROUP: "inactive"
- COMPOUND: "O=C(Nc1ccc(Cl)cc1)Nc1ccccc1CNc1nc(Nc2ccc(OCCN3CCCC3)cc2)ncc1Cl"
  STUDY_TARGET: "T-47D breast"
  GROUP: "inactive"
- COMPOUND: "c1ccc(-c2n(Cc3ccc4ccccc4c3)cc[n+]2Cc2ccc3ccccc3c2)cc1"
  STUDY_TARGET: "T-47D breast"
  GROUP: "active"
- COMPOUND: "Cc1cc2c(cc1C)[n+](Cc1ccc3ccccc3n1)cn2Cc1ccc2ccccc2n1"
  STUDY_TARGET: "T-47D breast"
  GROUP: "active"
- COMPOUND: "COc1ccc(-n2cnc3cc(C(=O)N4CCCCC4)ccc32)cc1"
  STUDY_TARGET: "T-47D breast"
  GROUP: "inactive"
- COMPOUND: "COc1cnc2c(c1)C(=O)c1c-2n(CCCN2CCC(O)CC2)c(=O)c2cc(F)ccc12"
  STUDY_TARGET: "T-47D breast"
  GROUP: "active"
- COMPOUND: "CC1C(C)N(C(=O)CCl)c2ccccc2N1C(=O)CCl (stereo not given)"
  STUDY_TARGET: "T-47D breast"
  GROUP: "active"
- COMPOUND: "O=C1Nc2ccc(Cl)cc2[C@@](C#CC2CC2)(C(F)(F)F)O1"
  STUDY_TARGET: "T-47D breast"
  GROUP: "inactive"
- COMPOUND: "COc1ccc(C(=O)COc2cccc(/C=C3\\COc4ccc5ccccc5c4C3=O)c2)cc1"
  STUDY_TARGET: "T-47D breast"
  GROUP: "inactive"
- COMPOUND: "CCN(CC)CCOCC[C@H]1CC[C@H]2[C@@H]3[C@H](C)Cc4cc(OS(N)(=O)=O)ccc4[C@H]3CC[C@]12C"
  STUDY_TARGET: "T-47D breast"
  GROUP: "active"
